# System: Plasmodium falciparum
# experimentSummary: GSK_TCMDC: Inhibition of Plasmodium falciparum Dd2 in whole red blood cells, using parasite LDH activity as an index of growth. Test compounds present at 2uM
# Format: functional

compound: CCN(CCCN1CCCCC1)c1cc(C)nc(Nc2ccc(OC)cc2)n1.O=C(O)C(F)(F)F
Inhibition [%]: 24
//
compound: COc1cc(Cc2cnc(N)nc2N)cc(OCCCCCC(=O)O)c1OC.Cl
Inhibition [%]: 2
//
compound: O=C(Nc1cc(F)c(F)c(-c2cccnc2)c1)N1CCc2cc(Cl)c(Cl)cc21
Inhibition [%]: 9
//
compound: CC(NC(=O)NC1CCC(CCN2CCCc3ccccc32)CC1)c1cccc2ccccc12.O=C(O)C(F)(F)F (centres undefined)
Inhibition [%]: 83
//
compound: O=C(O)C(F)(F)F.c1ccc2[nH]c(-c3ccc(-c4ccc(CN5CCN(c6ccncc6)CC5)cc4)cc3)nc2c1
Inhibition [%]: 100
//
compound: COc1ccc(CCNCCCCCCNCCc2ccccc2Cl)cc1OC.Cl
Inhibition [%]: 3
//
compound: COc1ccccc1-n1c(-c2ccc3ccccc3c2)csc1=NC(=O)c1ccccc1
Inhibition [%]: 79
//
compound: N#Cc1cccc(C(=O)Nc2cccc(-c3cccc(CN4CCNCC4)c3)c2)c1.O=C(O)C(F)(F)F
Inhibition [%]: 10
//
compound: Cc1cc(N2CCN(C(=O)OC(C)(C)C)CC2)ccc1N
Inhibition [%]: 38

----------
# System: Plasmodium falciparum
# experimentSummary: GSK_TCMDC: Inhibition of Plasmodium falciparum Dd2 in whole red blood cells, using parasite LDH activity as an index of growth. Test compounds present at 2uM
# Format: functional
The reader will find reported Inhibition values listed item by item below.

molecule: CC(C)c1cc(Oc2c(I)cc(CCNCc3ccccc3)cc2I)ccc1O.Cl
Inhibition: 54%
//
molecule: CNCC(C)(C)c1nc(-c2ccc(Cl)c(O)c2)c(-c2ccncc2)[nH]1.Cl
Inhibition: 96%
//
molecule: Cc1cc(CN2C(=O)C(c3ccccc3)(c3ccccc3)N=C2N)c(C(F)(F)F)o1
Inhibition: 84%
//
molecule: O=C(Nc1ccc(N2CCCN(Cc3cccc(F)c3)CC2)cc1)c1ccc(F)cc1.O=C(O)C(F)(F)F
Inhibition: 95%
//
molecule: Cc1c(C(=O)NCc2ccncc2)sc2nc(-c3cccc([N+](=O)[O-])c3)cn12
Inhibition: 29%
//
molecule: CC(C)(C)c1ccc(CN2CCCCC(NC(=O)c3cc(-c4cccc(F)c4)cs3)C2)cc1.O=C(O)C(F)(F)F (configuration not stated)
Inhibition: 84%
//
molecule: O=C(Nc1ccc(N2CCN(c3ncccc3C(F)(F)F)CC2)nc1)c1cccs1
Inhibition: 40%
//
molecule: COc1ccccc1CNC(=O)c1nn(-c2ccc(Cl)cc2)c(=O)c2ccccc12
Inhibition: 80%
//
molecule: CCOc1ccccc1N1CCN(CCCNC(=O)/C(=C/C=C/c2cc3cc(Cl)c(Cl)cc3[nH]2)OC)CC1
Inhibition: 93%
//
molecule: CC1CN(CC(O)Cn2c3ccc(Br)cc3c3cc(Br)ccc32)CC(C)O1 (configuration not stated)
Inhibition: 100%
//
molecule: O=c1cc(NCCCNCc2cc(Br)ccc2F)[nH]c2ccccc12
Inhibition: 14%
//
molecule: Cc1cc(N[C@@H](Cc2ccccc2)C(=O)NC2CCCC2)nc(NCCc2ccc(F)cc2)n1.O=C(O)C(F)(F)F
Inhibition: 61%
//
molecule: Br.N=C1c2ccccc2CN1CC(=O)c1ccc(Cl)c(Cl)c1
Inhibition: 16%
//
molecule: N#CCCN1CCN(Cc2cccc(-c3ccc(-c4nc5ccccc5[nH]4)s3)c2)CC1.O=C(O)C(F)(F)F
Inhibition: 8%
//
molecule: CCC(C)NC(=O)Nc1ccc(-c2cccc(-c3nc4ccccc4[nH]3)c2)cc1 (configuration not stated)
Inhibition: 37%
//
molecule: O=C(N[C@H]1CCN(CCc2ccc(O[C@H]3CCNC3)c(Cl)c2)C1)c1ccc(Cl)c(Cl)c1.O=C(O)C(F)(F)F
Inhibition: 0%
//
molecule: OC(CNC1CCCCC1)Cn1c2ccccc2c2ccccc21 (configuration not stated)
Inhibition: 92%
//
molecule: CN(c1ccc(NC(=O)Nc2cc(C(F)(F)F)ccc2F)cc1)c1ccnc(NCCN2CCCC2)n1.O=C(O)C(F)(F)F
Inhibition: 1%
//
molecule: Cc1cc(C(=O)Nc2ccc3c(c2)CCN3C2CCN(Cc3csc4ccccc34)C2)no1 (configuration not stated)
Inhibition: 96%
//
molecule: O=C(NC(c1ccc(Cl)cc1)c1ccc2cccnc2c1O)c1ccccc1 (configuration not stated)
Inhibition: 80%
//
molecule: CC(C)Cc1c(O)nc(SCCN2CCOCC2)[nH]c1=O.Cl
Inhibition: 0%
//
molecule: O=S(=O)(c1ccccc1C(F)(F)F)C1CC2CCC(C1)N2S(=O)(=O)c1ccc(Cl)c(C(F)(F)F)c1 (configuration not stated)
Inhibition: 99%
//
molecule: Cc1ccc(S(=O)(=O)n2cc(-c3ccnc(N)c3)c3cc(Br)cnc32)cc1
Inhibition: 31%
//
molecule: Cc1[nH]c(C)c(-c2ccc(OCCOc3ccc(C(F)(F)F)cn3)cc2)c(=O)c1Br
Inhibition: 97%
//
molecule: CC(C)(C)c1ccc(NC(=O)c2cccc(CN3CCCN(Cc4ccsc4)CC3)c2)cc1.O=C(O)C(F)(F)F
Inhibition: 3%
//
molecule: O=C(O)C(F)(F)F.O=S(=O)(NCCN1CCCC1)c1ccc(-c2ccc(CNCc3ccc(F)cc3)cc2)cc1F
Inhibition: 21%
//
molecule: CC(C)NCc1ccc(-c2cccc(NC(=O)c3ccc(C#N)cc3)c2)cc1.O=C(O)C(F)(F)F
Inhibition: 19%
//
molecule: CC(=O)Oc1cc(C(=O)Nc2ccc(Cl)cc2)cc2ccccc12
Inhibition: 47%
//
molecule: Cc1nc(N)nc(N)c1-c1ccc(Br)c([N+](=O)[O-])c1
Inhibition: 2%
//
molecule: CC(=O)N/N=C/[C@H](CCc1ccccc1)NC(=O)[C@H](CC(C)C)NC(=O)c1ccc(OCCN2CCOCC2)cc1
Inhibition: 87%
//
molecule: O=C(Nc1ccc(OC2CCN(Cc3ccccc3)CC2)c(Cl)c1)c1ccsc1.O=C(O)C(F)(F)F
Inhibition: 92%
//
molecule: CS(=O)(=O)c1ccccc1CNC(=O)c1ccc(-c2cccc(-c3nc4cc(C(F)(F)F)ccc4[nH]3)c2)cc1
Inhibition: 4%
//
molecule: Cl.Clc1ccc(CNCCCCCCCNCc2ccc(Cl)c(Cl)c2)cc1Cl
Inhibition: 49%
//
molecule: COc1ccc(NC(=O)[C@H](CC(C)C)Nc2cc(C)nc(NCCc3cccs3)n2)cc1.O=C(O)C(F)(F)F
Inhibition: 68%
//
molecule: CCCCC(=O)N(CCOC)Cc1ccc(-c2ccc(CNCCC)cn2)cc1.O=C(O)C(F)(F)F
Inhibition: 68%
//
molecule: CC(C)C[C@H](NC(=O)c1cc2ccccc2s1)C(=O)N[C@H]1CCN(Cc2ccc(OCCCN(C)C)c(Cl)c2)C1.O=C(O)C(F)(F)F
Inhibition: 89%
//
molecule: CC[C@H](C)CNC(=O)c1cncc(-c2ccc(CNC3CCCC3)cc2)c1.O=C(O)C(F)(F)F
Inhibition: 5%

----------
Entries and their Inhibition
# Test system: Plasmodium falciparum
# experimentSummary: GSK_TCMDC: Inhibition of Plasmodium falciparum 3D7 in whole red blood cells, using parasite LDH activity as an index of growth. Test compounds present at 2uM
# Type: functional
measurementName: Inhibition (%)

smilesInput: CN(CCNCc1ccc(-c2cccc(-c3nc4ccccc4[nH]3)c2)cc1)S(C)(=O)=O.O=C(O)C(F)(F)F
system: Plasmodium falciparum
measureUnit: %
testResult: 100
//
smilesInput: CN(C)CCN(C)Cc1cccc(-c2cccc(NC(=O)c3cccc(C#N)c3)c2)c1.O=C(O)C(F)(F)F
system: Plasmodium falciparum
measureUnit: %
testResult: 92
//
smilesInput: CCCCCCN1CCC(CNCc2cccc(Cl)c2)CC1.O=C(O)C(F)(F)F
system: Plasmodium falciparum
measureUnit: %
testResult: 85
//
smilesInput: COc1ccc2nccc(N3CCC(CCNCc4ccc5c(n4)NC(=O)CO5)CC3)c2n1.Cl
system: Plasmodium falciparum
measureUnit: %
testResult: 100
//
smilesInput: Cl.c1ccc2c(c1)ncn2-c1ccnc(Nc2ccncc2)n1
system: Plasmodium falciparum
measureUnit: %
testResult: 89

----------
# Tested on: Plasmodium falciparum
# experimentSummary: GSK_TCMDC: Inhibition of Plasmodium falciparum 3D7 in whole red blood cells, using parasite LDH activity as an index of growth. Test compounds present at 2uM
# Assay type: functional
measurementName: Inhibition (%)

compound: CC1CC(C)CN(CC(O)CNC(=O)Nc2ccc(Br)cc2)C1.O=C(O)C(F)(F)F (centres undefined)
system: Plasmodium falciparum
testResult: 94
--
compound: c1ccc(C2=NN=C(c3ccccn3)C3C4CC(C23)C2C3CC(c5ccccc53)C42)nc1 (centres undefined)
system: Plasmodium falciparum
testResult: 98
--
compound: CCOc1ccc(C(=O)Nc2cc(Br)c3c(c2)CNCC3)cc1C(F)(F)F.Cl
system: Plasmodium falciparum
testResult: 98
--
compound: Cc1cccc2nc(-c3ccc(-c4cccc(C(=O)NCCN5CCCC5)c4)s3)[nH]c12
system: Plasmodium falciparum
testResult: 94
--
compound: Cl.FC(F)(F)c1cc(CNCCCNc2nc3ccncc3[nH]2)ccc1Cl
system: Plasmodium falciparum
testResult: 99
--
compound: COc1ccc(CCCCN2C(=O)C(c3ccccc3)(c3ccccc3)N=C2N)cc1.O=C(O)C(F)(F)F
system: Plasmodium falciparum
testResult: 97
--
compound: CN(C)c1ccc(CN2CCC(CNC(=O)c3cc(-c4cccc(C(F)(F)F)c4)cs3)C2)cc1.O=C(O)C(F)(F)F (centres undefined)
system: Plasmodium falciparum
testResult: 96
--
compound: CC(C)(CNCc1ccc(Cl)cc1)c1nc(-c2ccc(Cl)c(O)c2)c(-c2ccncc2)[nH]1.Cl
system: Plasmodium falciparum
testResult: 100
--
compound: O=C(/C=C/c1ccc(Cl)cc1)NCCCCCN1CCC(C(=O)Nc2ccc(Cl)cc2)CC1
system: Plasmodium falciparum
testResult: 99

Where do the numbers come from? From ChEMBL document CHEMBL1157539.
